measured_on: PRMT8 (Homo sapiens)
Construct: Full-length human PRMT8 (NM_019854.4) isoform 1 transcript clone; made in house; host or cells: E. coli BL21(DE3) Gold
procedure_text: PRMT8 Biochemical Assay
experimental_conditions: Table 2a, numerical; single experiment or average of multiple experiments; read-out: PRMT8 IC50
pIC50: −log10 of the molar value.
Listing: pIC50 of selected compounds
readout: pIC50

smiles_entry=CN(CCN)Cc1cncn1-c1ccc(C#N)cc1 comparison_operator== assay_result=5.09
smiles_entry=CN(CCN)Cc1oncc1-c1ccc(F)cc1 comparison_operator=< assay_result=5.00
smiles_entry=CN(CCN)Cc1ccnn1-c1ccc(Oc2ccccc2)cc1 comparison_operator== assay_result=7.14
smiles_entry=CN(CCN)Cc1ccnn1-c1ccc(C#N)cc1 comparison_operator== assay_result=5.89
smiles_entry=CN(CCN)Cc1n[nH]nc1-c1ccc(C#N)cc1 comparison_operator== assay_result=5.81
smiles_entry=CN(CCN)Cc1ncoc1-c1ccc(C#N)cc1 comparison_operator== assay_result=5.73
smiles_entry=CC(C)Oc1ccc(-n2nccc2CN(C)CCN)cc1 comparison_operator== assay_result=7.05
smiles_entry=CN(CCN)Cc1nsnc1-c1ccc(C#N)cc1 comparison_operator== assay_result=6.35
smiles_entry=CN(CCN)Cc1[nH]cnc1-c1ccc(C#N)cc1 comparison_operator== assay_result=5.50
smiles_entry=CN(CCN)Cc1ocnc1-c1ccc(C#N)cc1 comparison_operator== assay_result=6.29

----------
measured_on: PRMT6 (Homo sapiens)
Construct: Expressed full-length human Flag- and His-tagged PRMT6 protein was purified from cell paste; made in house; host or cells: HEK 293F cells (BacMam baculovirus)
Sequence (Q96LA8 with tags, fused parts or gaps): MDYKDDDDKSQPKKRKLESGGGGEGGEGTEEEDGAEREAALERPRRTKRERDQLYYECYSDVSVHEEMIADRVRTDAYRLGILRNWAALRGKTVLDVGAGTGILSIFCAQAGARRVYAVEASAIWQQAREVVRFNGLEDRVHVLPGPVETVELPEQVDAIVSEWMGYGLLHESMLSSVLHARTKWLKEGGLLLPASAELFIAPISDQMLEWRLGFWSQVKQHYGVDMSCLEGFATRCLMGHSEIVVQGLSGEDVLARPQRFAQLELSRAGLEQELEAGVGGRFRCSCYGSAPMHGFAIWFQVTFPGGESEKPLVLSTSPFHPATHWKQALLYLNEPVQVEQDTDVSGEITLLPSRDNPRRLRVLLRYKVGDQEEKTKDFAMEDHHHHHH
procedure_text: PRMT6 Biochemical Assay
experimental_conditions: Table 2a, numerical; single experiment or average of multiple experiments; read-out: PRMT6 IC50
readout: IC50 (nM)

compound="CN(CCN)Cc1oncc1-c1ccc(F)cc1 [Compound 11]" readout=IC50 unit_string=nM comparison_operator== assay_result=2950
compound="CN(CCN)Cc1cncn1-c1ccc(C#N)cc1 [Compound 6]" readout=IC50 unit_string=nM comparison_operator== assay_result=1090
compound="CN(CCN)Cc1ncoc1-c1ccc(C#N)cc1 [Compound 1]" readout=IC50 unit_string=nM comparison_operator== assay_result=350
compound="CC(C)Oc1ccc(-n2nccc2CN(C)CCN)cc1 [Compound 8]" readout=IC50 unit_string=nM comparison_operator== assay_result=46.4
compound="CN(CCN)Cc1n[nH]nc1-c1ccc(C#N)cc1 [Compound 3]" readout=IC50 unit_string=nM comparison_operator== assay_result=70.3
compound="CN(CCN)Cc1ccnn1-c1ccc(Oc2ccccc2)cc1 [Compound 9]" readout=IC50 unit_string=nM comparison_operator== assay_result=6.72
compound="CN(CCN)Cc1cnnn1-c1ccc(C#N)cc1 [Compound 5]" readout=IC50 unit_string=nM comparison_operator=> assay_result=10000
compound="CN(CCN)Cc1nsnc1-c1ccc(C#N)cc1 [Compound 7]" readout=IC50 unit_string=nM comparison_operator== assay_result=112
compound="CN(CCN)Cc1ccnn1-c1ccc(C#N)cc1 [Compound 2]" readout=IC50 unit_string=nM comparison_operator== assay_result=98.7
compound="CN(CCN)Cc1[nH]cnc1-c1ccc(C#N)cc1 [Compound 10]" readout=IC50 unit_string=nM comparison_operator== assay_result=168
compound="CN(CCN)Cc1ocnc1-c1ccc(C#N)cc1 [Compound 4]" readout=IC50 unit_string=nM comparison_operator== assay_result=168

----------
measured_on: PRMT1 (Homo sapiens, UniProt Q99873)
Construct: made in house; host or cells: High Five insect cells (baculovirus)
Sequence (Q99873 with tags, fused parts or gaps): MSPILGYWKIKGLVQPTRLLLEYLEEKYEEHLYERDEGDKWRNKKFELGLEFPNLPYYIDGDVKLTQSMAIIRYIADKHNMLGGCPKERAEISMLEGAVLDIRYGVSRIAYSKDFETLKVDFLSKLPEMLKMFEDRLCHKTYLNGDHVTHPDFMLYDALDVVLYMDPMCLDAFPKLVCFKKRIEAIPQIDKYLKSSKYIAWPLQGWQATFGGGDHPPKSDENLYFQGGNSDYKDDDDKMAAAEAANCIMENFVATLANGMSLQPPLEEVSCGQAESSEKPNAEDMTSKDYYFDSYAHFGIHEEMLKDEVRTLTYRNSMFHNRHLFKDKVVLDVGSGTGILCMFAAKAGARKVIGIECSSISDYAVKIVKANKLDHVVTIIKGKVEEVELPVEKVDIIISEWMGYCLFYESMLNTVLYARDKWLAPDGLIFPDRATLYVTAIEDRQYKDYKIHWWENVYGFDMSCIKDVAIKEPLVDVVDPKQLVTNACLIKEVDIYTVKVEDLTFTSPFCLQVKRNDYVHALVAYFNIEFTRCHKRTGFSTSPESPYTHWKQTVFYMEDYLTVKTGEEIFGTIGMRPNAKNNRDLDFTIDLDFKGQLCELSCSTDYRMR
procedure_text: PRMT1 Biochemical Assay
experimental_conditions: Table 2, biochemical evaluation; read-out: PRMT1 IC50 (class)
Excerpt: Peptide representative of human histone H4 residues 36-50 was synthesized with an N-terminal linker-affinity tag motif and a C-terminal amide cap by 21st Century Biochemicals. The peptide was purified by high-performance liquid chromatography (HPLC) to greater than 95% purity and confirmed by liquid chromatography mass spectrometry (LC-MS). The sequence was Biot-Ahx-[…]-amide (SEQ ID NO.:1). […]
pIC50: −log10 of the molar value.
readout: pIC50

smiles_entry=CC(C)Oc1ccc(-n2nccc2CN(C)CCN)cc1 measured_on="PRMT1 (Homo sapiens, UniProt Q99873)" assay_result="> 7.00"
smiles_entry=CN(CCN)Cc1[nH]cnc1-c1ccc(C#N)cc1 measured_on="PRMT1 (Homo sapiens, UniProt Q99873)" assay_result="6.00 to 7.00"
smiles_entry=CN(CCN)Cc1ccnn1-c1ccc(Oc2ccccc2)cc1 measured_on="PRMT1 (Homo sapiens, UniProt Q99873)" assay_result="> 7.00"
smiles_entry=CN(CCN)Cc1n[nH]nc1-c1ccc(C#N)cc1 measured_on="PRMT1 (Homo sapiens, UniProt Q99873)" assay_result="> 7.00"
smiles_entry=CN(CCN)Cc1ccnn1-c1ccc(C#N)cc1 measured_on="PRMT1 (Homo sapiens, UniProt Q99873)" assay_result="6.00 to 7.00"
smiles_entry=CN(CCN)Cc1ncoc1-c1ccc(C#N)cc1 measured_on="PRMT1 (Homo sapiens, UniProt Q99873)" assay_result="6.00 to 7.00"
smiles_entry=CN(CCN)Cc1ocnc1-c1ccc(C#N)cc1 measured_on="PRMT1 (Homo sapiens, UniProt Q99873)" assay_result="6.00 to 7.00"
smiles_entry=CN(CCN)Cc1cncn1-c1ccc(C#N)cc1 measured_on="PRMT1 (Homo sapiens, UniProt Q99873)" assay_result="5.52 to 6.00"
smiles_entry=CN(CCN)Cc1nsnc1-c1ccc(C#N)cc1 measured_on="PRMT1 (Homo sapiens, UniProt Q99873)" assay_result="6.00 to 7.00"
smiles_entry=CN(CCN)Cc1cnnn1-c1ccc(C#N)cc1 measured_on="PRMT1 (Homo sapiens, UniProt Q99873)" assay_result="< 5.00"
smiles_entry=CN(CCN)Cc1oncc1-c1ccc(F)cc1 measured_on="PRMT1 (Homo sapiens, UniProt Q99873)" assay_result="5.52 to 6.00"

----------
measured_on: PRMT8 (Homo sapiens, UniProt Q9NR22)
Construct: Full-length human PRMT8 (NM_019854.4) isoform 1 transcript clone; made in house; host or cells: E. coli BL21(DE3) Gold
Sequence (Q9NR22 whole entry, canonical isoform): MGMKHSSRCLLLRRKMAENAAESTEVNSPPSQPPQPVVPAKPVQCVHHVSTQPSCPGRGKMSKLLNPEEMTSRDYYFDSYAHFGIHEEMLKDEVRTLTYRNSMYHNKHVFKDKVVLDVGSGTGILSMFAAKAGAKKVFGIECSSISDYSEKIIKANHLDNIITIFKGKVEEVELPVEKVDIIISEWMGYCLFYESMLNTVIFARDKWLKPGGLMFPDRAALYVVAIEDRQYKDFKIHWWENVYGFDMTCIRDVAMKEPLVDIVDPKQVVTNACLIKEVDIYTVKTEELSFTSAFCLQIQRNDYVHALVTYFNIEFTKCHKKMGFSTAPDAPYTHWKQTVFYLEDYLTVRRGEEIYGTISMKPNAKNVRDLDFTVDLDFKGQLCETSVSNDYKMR
procedure_text: PRMT8 Biochemical Assay
experimental_conditions: Table 2, biochemical evaluation; read-out: PRMT8 IC50 (class)
readout: IC50

molecule="CC(C)Oc1ccc(-n2nccc2CN(C)CCN)cc1 [Compound 8]" measured_on="PRMT8 (Homo sapiens, UniProt Q9NR22)" assay_result="< 0.1 µM"
molecule="CN(CCN)Cc1n[nH]nc1-c1ccc(C#N)cc1 [Compound 3]" measured_on="PRMT8 (Homo sapiens, UniProt Q9NR22)" assay_result="1.01 to 3 µM"
molecule="CN(CCN)Cc1ccnn1-c1ccc(C#N)cc1 [Compound 2]" measured_on="PRMT8 (Homo sapiens, UniProt Q9NR22)" assay_result="1.01 to 3 µM"
molecule="CN(CCN)Cc1ocnc1-c1ccc(C#N)cc1 [Compound 4]" measured_on="PRMT8 (Homo sapiens, UniProt Q9NR22)" assay_result="0.101 to 1 µM"
molecule="CN(CCN)Cc1oncc1-c1ccc(F)cc1 [Compound 11]" measured_on="PRMT8 (Homo sapiens, UniProt Q9NR22)" assay_result="> 10 µM"
molecule="CN(CCN)Cc1ccnn1-c1ccc(Oc2ccccc2)cc1 [Compound 9]" measured_on="PRMT8 (Homo sapiens, UniProt Q9NR22)" assay_result="< 0.1 µM"
molecule="CN(CCN)Cc1nsnc1-c1ccc(C#N)cc1 [Compound 7]" measured_on="PRMT8 (Homo sapiens, UniProt Q9NR22)" assay_result="0.101 to 1 µM"
molecule="CN(CCN)Cc1cncn1-c1ccc(C#N)cc1 [Compound 6]" measured_on="PRMT8 (Homo sapiens, UniProt Q9NR22)" assay_result="3.01 to 10 µM"
molecule="CN(CCN)Cc1[nH]cnc1-c1ccc(C#N)cc1 [Compound 10]" measured_on="PRMT8 (Homo sapiens, UniProt Q9NR22)" assay_result="3.01 to 10 µM"
molecule="CN(CCN)Cc1ncoc1-c1ccc(C#N)cc1 [Compound 1]" measured_on="PRMT8 (Homo sapiens, UniProt Q9NR22)" assay_result="3.01 to 10 µM"

----------
Test system: mono-methyl arginine in RKO cells
procedure_text: RKO Methylation Assay (In Cell Western)
Type: cell-based
experimental_conditions: Homo sapiens, 72 hours, read-out: In Cell Western EC30 (class)
readout: EC30

compound="CN(CCN)Cc1cnnn1-c1ccc(C#N)cc1 [Compound 5]" assay_result="≥ 12 µM"
compound="CN(CCN)Cc1nsnc1-c1ccc(C#N)cc1 [Compound 7]" assay_result="≥ 12 µM"
compound="CN(CCN)Cc1cncn1-c1ccc(C#N)cc1 [Compound 6]" assay_result="≥ 12 µM"
compound="CN(CCN)Cc1ncoc1-c1ccc(C#N)cc1 [Compound 1]" assay_result="≥ 12 µM"
compound="CN(CCN)Cc1ccnn1-c1ccc(Oc2ccccc2)cc1 [Compound 9]" assay_result="≤ 3 µM"
compound="CN(CCN)Cc1[nH]cnc1-c1ccc(C#N)cc1 [Compound 10]" assay_result="≥ 12 µM"
compound="CC(C)Oc1ccc(-n2nccc2CN(C)CCN)cc1 [Compound 8]" assay_result="≤ 3 µM"
compound="CN(CCN)Cc1n[nH]nc1-c1ccc(C#N)cc1 [Compound 3]" assay_result="≥ 12 µM"
compound="CN(CCN)Cc1oncc1-c1ccc(F)cc1 [Compound 11]" assay_result="≥ 12 µM"
compound="CN(CCN)Cc1ccnn1-c1ccc(C#N)cc1 [Compound 2]" assay_result="≥ 12 µM"
compound="CN(CCN)Cc1ocnc1-c1ccc(C#N)cc1 [Compound 4]" assay_result="≤ 3 µM"
